Attribution: PubChem BioAssay AID1159580

Test: chemical genetic growth profiling, strain panel (AID 1159580);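 also: tested at 20 µM; growth read once vehicle control cultures reached saturation at 30 °C; 1 = growth at the plate median or of vehicle wells; lower values mean less growth of the strain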
Settings: S. cerevisiae deletion strains, growth OD, locus YBR279W, strain paf1, stronger effect = lower value
The whole screen tested about 5,500 compounds, of which about 2,000 (36%) were called active. About 18% were inconclusive and are not listed. The list shows a part of the results.
# strict inequality: normalized growth < 1 yields label 1, everything else yields label 0

> print(dat)
                                chem.smiles  category.label
1  CS(=O)(=O)c1ccc([C@@H](O)[C@@H](CO)NC(=O)C(Cl)Cl)cc1         label 0

Kindly consider the entry below.
Dear colleague, could you confirm whether normalized growth of `CC(C)=CCc1c2c(c3occ(-c4ccc(O)cc4)c(=O)c3c1O)C=CC(C)(C)O2` falls below 1? Thanks. label 1

====

Assay: chemical genetic growth profiling, strain panel (AID 1159580);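 also: tested at 20 µM; growth read once vehicle control cultures reached saturation at 30 °C; 1 = growth at the plate median or of vehicle wells; lower values mean less growth of the strain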
Conditions: S. cerevisiae deletion strains, growth OD, locus YDR334W, strain swr1, stronger effect = lower value
Out of some 5,500 compounds screened, about 2,000 (36%) were called active. Inconclusive results (about 18%) are left out. The list shows a part of the results.
ENDPOINT NAME: normalized growth
Answers are plain numbers.

Here's what some known entries look like.
> print(dat)
                                    compound      endpoint.name  endpoint.result
 1  C=C1c2c(Cl)ccc(O)c2C(O)=C2C(=O)[C@]3(O)C(O)=C(C(N)=O)C(=O)[C@@H](N(C)C)[C@@H]3[C@@H](O)[C@H]12  normalized growth            0.949
 2                          NC1=NCCN1CC(=O)O  normalized growth             1.01
 3  CC(C)CCCC(C)C1CCC2C3CC(=O)[C@H]4C[C@@H](O)CC[C@]4(C)C3CC[C@]12C (some centres not stated)  normalized growth             1.02
 4                 Cc1cc(=O)oc2cc(O)cc(O)c12  normalized growth            0.948
 5  CC(C)CCCC(C)[C@H]1CCC2C3CC=C4CC(=O)CC[C@]4(C)C3CC[C@@]21C (some centres not stated)  normalized growth            0.968
 6          CN(C)C(=O)Oc1cccc([N+](C)(C)C)c1  normalized growth                1
 7  Cc1scc2c1N(C(=O)CN1CCN(C)CC1)c1ccccc1NC2=O  normalized growth            0.943
 8  C[C@H]1c2cccc(O)c2C(O)=C2C(=O)[C@]3(O)C(O)=C(C(N)=O)C(=O)[C@@H](N(C)C)[C@@H]3[C@@H](O)[C@@H]21  normalized growth            0.944
 9    CC(=O)Nc1ccc(S(=O)(=O)Nc2onc(C)c2C)cc1  normalized growth            0.975
10                         Nc1ccc(C(=O)O)cc1  normalized growth             1.01

Please look at the items below and tell me normalized growth for each one, in order.
1. CC(C)CCCC(C)[C@H]1CCC2C3CC=C4C[C@@H](O)CC[C@]4(C)C3CC[C@@]21C (some centres not stated)
2. N[C@@H](CCC(=O)N[C@@H](CS)C(=O)NCC(=O)O)C(=O)O
3. CC(C)CCCC(C)[C@H]1CCC2C3C(=O)C=C4C[C@@H](O)CC[C@]4(C)C3CC[C@@]21C (some centres not stated)
4. CNCCCC12CCC(c3ccccc31)c1ccccc12
5. CN(C)[C@@H]1C(=O)C(C(N)=O)=C(O)[C@@]2(O)C(=O)C3=C(O)c4c(O)cccc4[C@@](C)(O)[C@H]3[C@H](O)[C@@H]12

0.964
0.998
0.975
0.995
1.01

Please look at the items below and tell me normalized growth for each one, in order.
1. COc1ccccc1OCC(O)CO (configuration not stated)
2. CC(=O)O[C@H]1CC[C@@]2(C)C(=CC(=O)C3C4CCC(C(C)CCCC(C)C)[C@@]4(C)CCC32)C1 (some centres not stated)

1: 1.03; 2: 0.994
